TESTED_TARGET: crude membranes from rat cerebellum (rat)
ASSAY_COMMENT: radioligand saturation binding, filter assay, crude membranes
Positions of bridges follow the written chain, without caps; N, C: chain ends. *: point of attachment. Boc = CC(C)(C)OC(=O)*
MEASUREMENT_KIND: Kd

What value of Kd has been recorded for this entry: Boc-PPSVVSG-OMe (bridge 3-6; also: tritium label) 100 to 200 nM
